pIC50 for Epidermal growth factor receptor (Homo sapiens, UniProt P00533), merged from several publications.
pIC50: −log10 of the molar value.

- smiles representation: "COc1ncc(-c2cc3c(c(NC(=O)CN4CCOCC4)c2)COC3)cc1NS(C)(=O)=O"
  pIC50: "< 5.00"
- smiles representation: "COc1cc2ncnc3c2cc1OCCOCCOc1ccccc1N3"
  pIC50: "< 4.00"
- smiles representation: "CN1CCN(Cc2ccc(C(=O)Nc3cccc(Nc4nccc(-c5cccnc5)n4)c3)cc2)CC1"
  pIC50: "< 4.00"

GET /values?readout=pIC50&item= CCS(=O)(=O)n1cc(-c2nc(Nc3ccc(N4CCC(N5CCN(C)CC5)CC4)c(Cl)c3OC)ncc2Cl)c2ccccc21 < 6.00

And the next one, CCc1cc(N2CCOCC2)c2cc1Nc1ncc(Cl)c(n1)-c1cn(S(=O)(=O)CC)c3cc(ccc13)OCCCCCCO2 ? < 6.00
